Below, each of the molecules is paired with its reported log10 half-life value.
- protocol: Half-lives of hydrolysis of the prodrugs in phosphate buffer at pH 7.4
- test.parameters: pH 7.4, Half-life of hydrolysis, Buffer, phosphate buffer at ph 7.4
Friendly reminder: values = log10 of half-life, unit h.

// solved cases for log10 half-life follow
molecule	log10 half-life
COCCOCCOCC(=O)O[C@H](CN1CC[C@H]2CCCC[C@H]2[C@H]1C(=O)NC(C)(C)C)[C@H](Cc1ccccc1)NC(=O)[C@H](CC(N)=O)NC(=O)c1ccc2ccccc2n1	0.54
COCCOCCOCC(=O)OCn1cc(F)c(=O)[nH]c1=O	0.57

Reported log10 half-life for CC(C)(C)OC(=O)COCC(=O)OCC1CCC(n2ccc(N)nc2=O)O1 (stereo not shown) : what is it? 1.04
